Test system: erythrocyte (Homo sapiens)
Test: Cytotoxicity against human erythrocytes assessed as induction of hemolysis at 10 uL after 4 hrs
experimental.readout: Activity

// worked examples, Activity included
{"columns": ["structure.string", "Activity"],
 "data": [
  ["CC(C)C[C@@H]1NC(=O)[C@H](CCCN)NC(=O)[C@H](C(C)C)NC(=O)[C@H](Cc2c[nH]c3ccccc23)NC(=O)[C@H](CC(=O)O)NC(=O)[C@@H]2O[C@H](CNC(=O)[C@H](Cc3c[nH]c4ccccc34)NC(=O)[C@@H]3CCCN3C(=O)[C@@H](Cc3ccc(O)cc3)NC1=O)[C@@H](OCc1ccccc1)[C@@H]2O", "Non-toxic"],
  ["CC(C)C[C@@H]1NC(=O)[C@H](CCCN)NC(=O)[C@H](C(C)C)NC(=O)[C@H](Cc2c[nH]c3ccccc23)NC(=O)[C@H](CC(=O)O)NC(=O)[C@H](CC(N)=O)NC(=O)[C@@H](Cc2ccccc2)NC(=O)[C@H](Cc2c[nH]c3ccccc23)NC(=O)[C@@H]2O[C@H](CNC1=O)[C@@H](OCc1ccccc1)[C@@H]2O", "Non-toxic"],
  ["CC(C)C[C@@H]1NC(=O)[C@H](CCCN)NC(=O)[C@H](C(C)C)NC(=O)[C@@H]2O[C@H](CNC(=O)[C@H](CC(N)=O)NC(=O)[C@@H](Cc3ccccc3)NC(=O)[C@H](Cc3c[nH]c4ccccc34)NC(=O)[C@@H]3CCCN3C(=O)[C@@H](Cc3ccc(O)cc3)NC1=O)[C@@H](OCc1ccccc1)[C@@H]2O", "Non-toxic"],
  ["CC(C)C[C@@H]1NC(=O)[C@H](CCCN)NC(=O)[C@H](C(C)C)NC(=O)[C@H](Cc2c[nH]c3ccccc23)NC(=O)[C@H](CC(=O)O)NC(=O)[C@H](CC(N)=O)NC(=O)[C@@H](Cc2ccccc2)NC(=O)[C@H](Cc2c[nH]c3ccccc23)NC(=O)[C@@H]2CCCN2C(=O)[C@@H](Cc2ccc(O)cc2)NC1=O", "Toxic"],
  ["CC(C)C[C@@H]1NC(=O)[C@H](CCCN)NC(=O)[C@H](C(C)C)NC(=O)[C@H](Cc2c[nH]c3ccccc23)NC(=O)[C@H](CC(=O)O)NC(=O)[C@H](CC(N)=O)NC(=O)[C@H](Cc2ccccc2)NC(=O)[C@H](Cc2c[nH]c3ccccc23)NC(=O)[C@@H]2CCCN2C(=O)[C@@H](Cc2ccc(O)cc2)NC1=O", "Toxic"]
]}

With those in mind, consider the next compound.
Input: Form field: reported Activity of "CC(C)C[C@@H]1NC(=O)[C@H](CCCN)NC(=O)[C@H](C(C)C)NC(=O)[C@@H]2O[C@H](CNC(=O)[C@H](CC(N)=O)NC(=O)[C@H](Cc3ccccc3)NC(=O)[C@H](Cc3c[nH]c4ccccc34)NC(=O)[C@@H]3CCCN3C(=O)[C@@H](Cc3ccc(O)cc3)NC1=O)[C@@H](OCc1ccccc1)[C@@H]2O"
Output: Toxic
